- Target: T1, recombinant human C1r2s2 Flag/His tetramer (human, UniProt P09871 16-688; P00736 18-705)
- T1 construct: whole entries named; also called hc1r2s2; rC1r2s2
- T1 chain 1: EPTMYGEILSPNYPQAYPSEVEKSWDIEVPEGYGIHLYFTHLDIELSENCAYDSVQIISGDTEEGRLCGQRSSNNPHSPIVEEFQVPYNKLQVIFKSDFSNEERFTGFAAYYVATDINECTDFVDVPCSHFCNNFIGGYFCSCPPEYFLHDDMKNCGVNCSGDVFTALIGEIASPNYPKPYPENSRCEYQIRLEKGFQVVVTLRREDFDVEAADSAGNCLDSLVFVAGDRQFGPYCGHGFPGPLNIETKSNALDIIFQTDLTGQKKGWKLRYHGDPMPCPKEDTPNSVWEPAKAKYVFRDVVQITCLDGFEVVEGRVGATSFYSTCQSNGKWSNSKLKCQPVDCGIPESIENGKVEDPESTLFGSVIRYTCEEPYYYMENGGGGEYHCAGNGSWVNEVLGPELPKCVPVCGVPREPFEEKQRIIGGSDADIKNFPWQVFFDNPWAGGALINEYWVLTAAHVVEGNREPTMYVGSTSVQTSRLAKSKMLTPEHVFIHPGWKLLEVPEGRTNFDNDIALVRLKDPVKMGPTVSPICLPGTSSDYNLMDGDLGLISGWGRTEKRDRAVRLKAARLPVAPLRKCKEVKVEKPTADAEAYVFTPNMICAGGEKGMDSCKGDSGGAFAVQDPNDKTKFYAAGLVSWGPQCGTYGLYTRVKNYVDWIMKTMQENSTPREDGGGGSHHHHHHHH
- T1 chain 2: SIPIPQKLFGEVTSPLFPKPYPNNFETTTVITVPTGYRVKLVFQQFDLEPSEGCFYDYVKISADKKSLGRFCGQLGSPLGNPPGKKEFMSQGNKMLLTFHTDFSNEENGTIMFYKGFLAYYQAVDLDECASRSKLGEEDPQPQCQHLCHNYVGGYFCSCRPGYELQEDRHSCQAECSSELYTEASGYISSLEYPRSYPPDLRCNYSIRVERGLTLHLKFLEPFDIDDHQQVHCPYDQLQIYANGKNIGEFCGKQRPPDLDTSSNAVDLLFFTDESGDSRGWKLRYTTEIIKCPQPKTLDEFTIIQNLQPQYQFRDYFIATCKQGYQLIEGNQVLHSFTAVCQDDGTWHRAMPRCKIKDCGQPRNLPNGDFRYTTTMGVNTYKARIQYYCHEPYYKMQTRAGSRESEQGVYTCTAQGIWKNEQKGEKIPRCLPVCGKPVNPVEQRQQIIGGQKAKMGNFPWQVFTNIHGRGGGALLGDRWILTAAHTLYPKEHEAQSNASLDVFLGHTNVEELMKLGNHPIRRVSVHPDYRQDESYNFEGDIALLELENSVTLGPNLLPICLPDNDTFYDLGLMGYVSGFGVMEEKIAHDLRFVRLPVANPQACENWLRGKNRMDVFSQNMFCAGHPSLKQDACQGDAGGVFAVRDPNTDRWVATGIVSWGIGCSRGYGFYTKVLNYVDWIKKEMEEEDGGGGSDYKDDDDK
- Assay remarks: SPR displacement (37 degrees C, pH 7.4): C1r2s2 captured by anti-His, C1q 100 nM pre-bound, antibody 500 nM at 10 micro L/min; time from antibody injection until the antibody sensorgram falls below the buffer sensorgram; competitor native human C1q
Recorded metric: Time point of crossover (post-injection) (s)
Report only the number, with the unit s understood.

Request: Query: Time point of crossover (post-injection); subject: COS0448oo-SG1148 (antibody, human IgG1, kappa, V domains shown, Rabbit B-cell derived variable regions; also called COS448; COS44800(-SG1148)) VH: QSVEESGGRLVTPGTPLTLTCTVSGFSLSNYGMIWVRQAPGEGLEYIGFVSGSGSAYYANWVKGRFTISKTSTTVDLKMTSLTTEDTATYFCARGAYNTDSYSYSLYYGMDLWGPGTLVTVSS VL: QIVMTQTPASVEVAVGGTVTIKCQASQSIYSYLSWYQQKPGQPPKLLIYGASTLASGVPSRFKGSRSGTEFTLTISDLECADAATYYCQSNYATTTTYGTFGGGTKVEIKR
Result: 169

Request: Another binder to look at: COS0637cc-SG1148 (antibody, human IgG1, kappa, V domains shown) VH: QSLEESGGRLVTPGTPLTLTCTASGFSLSAYAMNWVRQAPGKGLEWIGLIYGSGSTFYASWAKGRFTISKTSTTVDLKMTSLTTEDTATYFCARGRSVNYNSDFKLWGPGTLVTVSS VL: QVLTQTPSSVSAAVGGTVTINCQASQSLHDKKNLAWYQHKPGQRPNLLIYGASTLESGVPSRFKGSGSGTEYTLTISDLECDDAAAYYCQGEFSCSSADCNTFGGGTKVEIKR
Result: 764

Request: Another binder to look at: COS0631gg-SG1148 (antibody, human IgG1, kappa, V domains shown) VH: QSVEESGGRLVTPGTPLTLTCTVSGFSLSRYSMGWVRQAPGKGLEWIGIIYADGGAYYASWAKGRFTISKTSTTMDLKVTSPTTEDTATYFCARGQFINSNEFFNPWGPGTLVTVSS VL: QVLTQTASSVSAVVGGTVTINCQASQSLHNNKNLAWYQQKPGQPPRLLIYYASTLASGVSSRFKGSGSGTQFTLTISDLECDDAATYYCAGEFSCSNGDCNAFGGGTKVEIKR
Result: 736

Request: Another binder to look at: COS0499ee-SG1148 (antibody, human IgG1, kappa, V domains shown, also called COS499; COS499ee(-SG1148)) VH: QSLEESGGRLVTPGTPLTLTCTASGFSLSNYNMAWVRQAPGKGLEWIGIIETTTNTYYARWARGRFTISKTSSTTVDLQIASPTTEDTATYFCGRRVSNSHDLWGPGTLVTVSS VL: AYDMTQTPASVSAAVGGTVTINCQASQTIGGWCAWYQQKPGQPPKLLIYKASTLASGVSSRFKGSGSGTEFALTISDLECDDAATYYCQHGYYTSSTIENTFGGGTKVEIKR
Result: 61.9

Request: Another binder to look at: COS0547gg-SG1148 (antibody, human IgG1, kappa, V domains shown) VH: QSLEESGGRLVTPGTPLTLTCTASGFSLSSYHMDWVRQAPGKGLEWIGIITYTGDTYYATWAKGRFTISKTSSTTVDLKMASLTTEDTATYFCARRQYDAYNVWGPGTLVTVSS VL: AYDMTQTPASVEVAVGGTVTIKCQASQSINNYLAWYQQKPGQPPKLLIYYASTLASGVPSRFKGSRSGTEFTLTISGVECADAATYYCQHGYYTSSNIDSVFGGGTKVEIKR
Result: 542
